Reference for the values: PubChem BioAssay (NCI)

Below: a set of entries, each annotated with reported growth.
tested on: SK-MEL-28 melanoma; assay: NCI-60 one-dose screen, 48 h (100 = growth as untreated, 0 = no growth, -100 = all killed); settings: 10 µM unless noted
This is part of a sample that, as a whole, favours compounds with a hit. Of some 83,000 tested, about 20% had one in any assay.
Report the figure in % without appending any unit label.

Cn1cnc2c1c(=O)n(CCC(=O)Nc1ccc(F)cc1)c(=O)n2C | 110
CCCC(=O)N1CCCCC1CC (centres undefined) | 112
C#Cc1cc2c(N)c(C(=O)c3cc(OC)c(OC)c(OC)c3)[nH]c2cc1OC | 40.3
NCCn1cc(-c2nc(-c3c[nH]c4ncccc34)cs2)c2ccccc21 | 107
CN1CCN(c2ccc3nc(-c4[nH]ncc4Nc4ncnc5[nH]ccc45)[nH]c3c2)CC1 | -11.3

Attention now shifts to the item below.
Under SK-MEL-28 melanoma, report growth for O=C(NC1=CC(=O)c2ccccc2C1=O)c1ccccc1
52.3
